Target: Growth hormone secretagogue receptor type 1 (Homo sapiens)
Sequence (Q92847 whole entry): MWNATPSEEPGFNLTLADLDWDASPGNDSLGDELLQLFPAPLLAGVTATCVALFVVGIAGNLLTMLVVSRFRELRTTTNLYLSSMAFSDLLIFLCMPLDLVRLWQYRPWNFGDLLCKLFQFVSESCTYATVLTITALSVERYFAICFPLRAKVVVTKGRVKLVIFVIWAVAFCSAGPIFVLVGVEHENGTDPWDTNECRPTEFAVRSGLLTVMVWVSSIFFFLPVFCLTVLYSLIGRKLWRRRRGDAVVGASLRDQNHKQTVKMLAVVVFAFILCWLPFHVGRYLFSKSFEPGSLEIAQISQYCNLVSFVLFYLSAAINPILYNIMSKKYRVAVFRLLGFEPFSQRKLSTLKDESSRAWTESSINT
Assay: In vitro binding affinity against human type 1a growth hormone secretagogue receptor (hGHS-R1a), using [125I]ghrelin as radioligand.
I'd appreciate it if you could supply Ki values for the items below.
Give bare numbers, in nM.

Example results:
CN1N=C2CCN(C(=O)[C@@H](COCc3ccc(F)c(F)c3)NC(=O)C(C)(C)N)CC2(Cc2ccccc2)C1=O (some centres undefined) | 18
CC(C)(N)C(=O)N[C@H](COCc1ccc(F)cc1F)C(=O)N1CCC2=NN(CC(F)(F)F)C(=O)[C@]2(Cc2ccccn2)C1 | 5
CN1N=C2CCN(C(=O)[C@@H](COCc3ccccc3)NC(=O)C(C)(C)N)C[C@@]2(Cc2ccccc2)C1=O | 7

Next item in the queue.
Ask: So what does the record say about Ki for CC(C)(N)C(=O)N[C@H](COCc1ccc(F)c(F)c1)C(=O)N1CCC2=NN(CC(F)(F)F)C(=O)C2(Cc2ccccc2)C1 (some centres undefined) ?
Result: 0.45

These data points were gathered from ChEMBL document CHEMBL1134965.
